target-or-system: pim-1 kinase (Homo sapiens, UniProt P11309)
Sequence (P11309 whole entry): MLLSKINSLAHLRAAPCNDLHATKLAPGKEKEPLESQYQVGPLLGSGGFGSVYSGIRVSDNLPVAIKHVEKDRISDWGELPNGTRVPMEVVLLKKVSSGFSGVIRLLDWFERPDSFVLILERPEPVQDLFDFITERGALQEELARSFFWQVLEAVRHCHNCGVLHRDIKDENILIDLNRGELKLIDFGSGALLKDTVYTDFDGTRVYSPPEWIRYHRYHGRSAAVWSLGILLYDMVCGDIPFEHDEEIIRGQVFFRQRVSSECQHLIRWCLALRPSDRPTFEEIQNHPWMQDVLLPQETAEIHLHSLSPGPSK
protocol: Measurement of pim-1 kinase inhibitory activity (fluorescent substrate peptide, capillary electrophoresis)
Type: biochemical
experimental-parameters: 0.1 μM of each compound, 30 μM ATP, 1.5 μM substrate peptide, room temperature 2 hours; Table 1
Where a name gives a salt, the structure may show the parent alone.
quantity-name: inhibition at 0.1 µM (%)
Give just the number in %; leave the unit off.

1. CC(=O)NCc1ccc2[nH]cc(/C=C3\Oc4c(ccc(O)c4CN4CCNCC4)C3=O)c2c1 [Compound A20, dihydrochloride] = 62
2. COc1ccc2c(c1CN1CCNCC1)O/C(=C\c1c[nH]c3ncccc13)C2=O [Compound A53] = 98
3. CN(C)CCCN1CCN(Cc2c(O)ccc3c2O/C(=C\c2c[nH]c4ccccc24)C3=O)CC1 [Compound A1] = 51

Next up:
Prompt: Field request: inhibition at 0.1 µM | item: COc1ccc2c(c1CN1CCOCC1)O/C(=C\c1c[nH]c3ncccc13)C2=O [Compound A54]
Response: 72

* * *

target-or-system: pim-1 kinase (Homo sapiens, UniProt P11309)
protocol: Measurement of pim-1 kinase inhibitory activity (fluorescent substrate peptide, capillary electrophoresis)
Assay type: biochemical
experimental-parameters: 0.1 μM of each compound, 30 μM ATP, 1.5 μM substrate peptide, room temperature 2 hours; Table 1
Where a name gives a salt, the structure may show the parent alone.
quantity-name: inhibition at 0.1 µM (%)
Give just the number in %; leave the unit off.

Would you please look over these solved cases?
1. O=C1/C(=C/c2cn(S(=O)(=O)c3ccc(Cl)cc3Cl)c3ccccc23)Oc2c1ccc(O)c2CN1CCNCC1 [Compound A39, dihydrochloride] = 99
2. Cc1ccc2c(/C=C3\Oc4c(ccc(O)c4CN4CCNCC4)C3=O)c[nH]c2n1 [Compound A48, trihydrochloride] = 97
3. O=C1/C(=C/c2c[nH]c3ccc(Br)cc23)Oc2c1ccc(O)c2CN1CCNCC1 [Compound A22, dihydrochloride] = 94

Next up:
Prompt: Field request: inhibition at 0.1 µM | item: CNCc1cccc2c(/C=C3\Oc4c(ccc(O)c4CN4CCNCC4)C3=O)c[nH]c12 [Compound A28, trihydrochloride]
Response: 10

* * *

Recorded inhibition at 0.1 µM by entry
target-or-system: pim-1 kinase (Homo sapiens, UniProt P11309)
protocol: Measurement of pim-1 kinase inhibitory activity (fluorescent substrate peptide, capillary electrophoresis)
Assay type: biochemical
experimental-parameters: 0.1 μM of each compound, 30 μM ATP, 1.5 μM substrate peptide, room temperature 2 hours; Table 1
Counter-ions that a name gives are not always drawn.
Give just the number in %; leave the unit off.

1) O=C1/C(=C/c2c[nH]c3ccc([N+](=O)[O-])cc23)Oc2c1ccc(O)c2CN1CCNCC1 [Compound A17, dihydrochloride] = 82
2) O=C1CN(Cc2c(O)ccc3c2O/C(=C\c2c[nH]c4ncccc24)C3=O)CCN1 [Compound A45] = 83
3) CN(C)C1CCN(Cc2c(O)ccc3c2O/C(=C\c2c[nH]c4ccccc24)C3=O)C1 (centres unmarked) [Compound A3] = 47
4) O=C1/C(=C/c2c[nH]c3ccccc23)Oc2c1ccc(O)c2CN1CCC(O)CC1 [Compound A6] = 15
5) O=C1/C(=C/c2c[nH]c3ccc(OCCN4CCOCC4)cc23)Oc2c1ccc(O)c2CN1CCNCC1 [Compound A19, dihydrochloride trihydrochloride] = 62
6) C#Cc1ccc2c(/C=C3\Oc4c(ccc(O)c4CN4CCNCC4)C3=O)c[nH]c2n1 [Compound A50, trihydrochloride] = 94
7) O=C1/C(=C/c2c[nH]c3ncccc23)Oc2c1ccc(O)c2CN1CCNCC1 [Compound A42, trihydrochloride] = 96
8) O=C1/C(=C/c2c[nH]c3ccc(Cl)cc23)Oc2c1ccc(O)c2CN1CCNCC1 [Compound A21, dihydrochloride] = 94
9) O=C1/C(=C/c2c[nH]c3cc([N+](=O)[O-])ccc23)Oc2c1ccc(O)c2CN1CCNCC1 [Compound A24, dihydrochloride] = 60
10) COc1ccc2c(c1CN1CCOCC1)O/C(=C\c1c[nH]c3ccccc13)C2=O [Compound A41] = 40

Prompt: Field request: inhibition at 0.1 µM | item: Cc1ccc(S(=O)(=O)n2cc(/C=C3\Oc4c(ccc(O)c4CN4CCNCC4)C3=O)c3ccccc32)cc1 [Compound A33, dihydrochloride]
Response: 94

Prompt: Field request: inhibition at 0.1 µM | item: O=C1/C(=C/c2c[nH]c3ncccc23)Oc2c1ccc(O)c2CN1CCOCC1 [Compound A44]
Response: 27

Prompt: Field request: inhibition at 0.1 µM | item: O=C1/C(=C/c2cn(S(=O)(=O)c3ccc(Cl)cc3)c3ccccc23)Oc2c1ccc(O)c2CN1CCNCC1 [Compound A35, dihydrochloride]
Response: 96

Prompt: Field request: inhibition at 0.1 µM | item: O=C1/C(=C/c2cn(S(=O)(=O)c3c(Cl)cccc3Cl)c3ccccc23)Oc2c1ccc(O)c2CN1CCNCC1 [Compound A37, dihydrochloride]
Response: 99

* * *

target-or-system: pim-1 kinase (Homo sapiens)
protocol: Measurement of pim-1 kinase inhibitory activity (fluorescent substrate peptide, capillary electrophoresis)
Format: biochemical
experimental-parameters: 0.1 μM of each compound, 30 μM ATP, 1.5 μM substrate peptide, room temperature 2 hours; Table 2
quantity-name: inhibition at 0.1 µM (%)
Give just the number in %; leave the unit off.

1. COc1ccc2c(c1CCCCN1CCNCC1)O/C(=C\c1n[nH]c3ccccc13)C2=O = 86
2. COc1ccc2c(c1CCCC1CCNCC1)O/C(=C\c1n[nH]c3ccccc13)C2=O = 95
3. O=C1/C(=C/c2n[nH]c3ccc(Cl)cc23)Oc2c1cc(Cl)c(O)c2CN1CCNCC1 = 90
4. COc1ccc2[nH]nc(/C=C3\Oc4c(ccc(O)c4CN4CCNCC4)C3=O)c2c1 = 87
5. CCCOc1ccc2c(c1CN1CCNCC1)O/C(=C\c1n[nH]c3ccccc13)C2=O = 93
6. COc1cc2c(c(CN3CCNCC3)c1OC)O/C(=C\c1n[nH]c3ccccc13)C2=O = 87

Prompt: Field request: inhibition at 0.1 µM | item: COCCOc1ccc2c(c1CN1CCNCC1)O/C(=C\c1n[nH]c3ccccc13)C2=O
Response: 97

Prompt: Field request: inhibition at 0.1 µM | item: COc1ccc2c(c1CCCN1CCNCC1)O/C(=C\c1n[nH]c3ccccc13)C2=O
Response: 75

* * *

target-or-system: pim-1 kinase (Homo sapiens)
protocol: Measurement of pim-1 kinase inhibitory activity (fluorescent substrate peptide, capillary electrophoresis)
Type: biochemical
experimental-parameters: 0.1 μM of each compound, 30 μM ATP, 1.5 μM substrate peptide, room temperature 2 hours; Table 1
Counter-ions that a name gives are not always drawn.
Threshold check on inhibition at 0.1 µM: at or above 80% gives Satisfied, strictly below gives Not satisfied.

Here are 4 compounds together with their reported answers.
1) Cc1ccc2c(/C=C3\Oc4c(cc(Cl)c(O)c4CN4CCNCC4)C3=O)c[nH]c2n1 [Compound A51, trihydrochloride] = Satisfied
2) O=C1/C(=C/c2c[nH]c3ccccc23)Oc2c1cc(-c1ccccc1)c(O)c2CN1CCNCC1 [Compound A13, dihydrochloride] = Not satisfied
3) O=C1/C(=C/c2c[nH]c3nc(Br)ccc23)Oc2c1ccc(O)c2CN1CCNCC1 [Compound A47, trihydrochloride] = Satisfied
4) O=C1/C(=C/c2c[nH]c3ccccc23)Oc2c1ccc(OCc1ccccc1)c2CN1CCNCC1 = Not satisfied

Prompt: hey, is inhibition at 0.1 µM for this one >= 80%? CCOc1ccc2c(c1CN1CCNCC1)O/C(=C\c1c[nH]c3ccccc13)C2=O
Response: Satisfied

* * *

target-or-system: pim-1 kinase (Homo sapiens, UniProt P11309)
protocol: Measurement of pim-1 kinase inhibitory activity (fluorescent substrate peptide, capillary electrophoresis)
Assay type: biochemical
experimental-parameters: 0.1 μM of each compound, 30 μM ATP, 1.5 μM substrate peptide, room temperature 2 hours; Table 1
Structures can show the parent of a compound that is named as a salt.
Threshold check on inhibition at 0.1 µM: at or above 90% gives 1, strictly below gives -1.

Here are 3 compounds together with their reported answers.
1) CCCOc1ccc2c(c1CN1CCNCC1)O/C(=C\c1c[nH]c3ccccc13)C2=O = -1
2) CN(C)CCCN(C)Cc1c(O)ccc2c1O/C(=C\c1c[nH]c3ccccc13)C2=O = -1
3) O=C1/C(=C/c2cn(S(=O)(=O)c3ccc(C(F)(F)F)cc3)c3ccccc23)Oc2c1ccc(O)c2CN1CCNCC1 [Compound A34, dihydrochloride] = 1

Prompt: hey, is inhibition at 0.1 µM for this one >= 90%? O=C1/C(=C/c2c[nH]c3ncc(Br)cc23)Oc2c1ccc(O)c2CN1CCNCC1 [Compound A52, trihydrochloride]
Response: 1

Prompt: hey, is inhibition at 0.1 µM for this one >= 90%? Cc1ccc(S(=O)(=O)n2cc(/C=C3\Oc4c(ccc(O)c4CN4CCN(C)CC4)C3=O)c3ccccc32)cc1
Response: -1

Prompt: hey, is inhibition at 0.1 µM for this one >= 90%? COC(=O)c1ccc2c(/C=C3\Oc4c(ccc(O)c4CN4CCNCC4)C3=O)c[nH]c2c1
Response: -1
